# experimentalSystem: NaV1.5 (Homo sapiens (Human))
# Sequence (Q14524 other isoform, or with tags, fused parts or gaps): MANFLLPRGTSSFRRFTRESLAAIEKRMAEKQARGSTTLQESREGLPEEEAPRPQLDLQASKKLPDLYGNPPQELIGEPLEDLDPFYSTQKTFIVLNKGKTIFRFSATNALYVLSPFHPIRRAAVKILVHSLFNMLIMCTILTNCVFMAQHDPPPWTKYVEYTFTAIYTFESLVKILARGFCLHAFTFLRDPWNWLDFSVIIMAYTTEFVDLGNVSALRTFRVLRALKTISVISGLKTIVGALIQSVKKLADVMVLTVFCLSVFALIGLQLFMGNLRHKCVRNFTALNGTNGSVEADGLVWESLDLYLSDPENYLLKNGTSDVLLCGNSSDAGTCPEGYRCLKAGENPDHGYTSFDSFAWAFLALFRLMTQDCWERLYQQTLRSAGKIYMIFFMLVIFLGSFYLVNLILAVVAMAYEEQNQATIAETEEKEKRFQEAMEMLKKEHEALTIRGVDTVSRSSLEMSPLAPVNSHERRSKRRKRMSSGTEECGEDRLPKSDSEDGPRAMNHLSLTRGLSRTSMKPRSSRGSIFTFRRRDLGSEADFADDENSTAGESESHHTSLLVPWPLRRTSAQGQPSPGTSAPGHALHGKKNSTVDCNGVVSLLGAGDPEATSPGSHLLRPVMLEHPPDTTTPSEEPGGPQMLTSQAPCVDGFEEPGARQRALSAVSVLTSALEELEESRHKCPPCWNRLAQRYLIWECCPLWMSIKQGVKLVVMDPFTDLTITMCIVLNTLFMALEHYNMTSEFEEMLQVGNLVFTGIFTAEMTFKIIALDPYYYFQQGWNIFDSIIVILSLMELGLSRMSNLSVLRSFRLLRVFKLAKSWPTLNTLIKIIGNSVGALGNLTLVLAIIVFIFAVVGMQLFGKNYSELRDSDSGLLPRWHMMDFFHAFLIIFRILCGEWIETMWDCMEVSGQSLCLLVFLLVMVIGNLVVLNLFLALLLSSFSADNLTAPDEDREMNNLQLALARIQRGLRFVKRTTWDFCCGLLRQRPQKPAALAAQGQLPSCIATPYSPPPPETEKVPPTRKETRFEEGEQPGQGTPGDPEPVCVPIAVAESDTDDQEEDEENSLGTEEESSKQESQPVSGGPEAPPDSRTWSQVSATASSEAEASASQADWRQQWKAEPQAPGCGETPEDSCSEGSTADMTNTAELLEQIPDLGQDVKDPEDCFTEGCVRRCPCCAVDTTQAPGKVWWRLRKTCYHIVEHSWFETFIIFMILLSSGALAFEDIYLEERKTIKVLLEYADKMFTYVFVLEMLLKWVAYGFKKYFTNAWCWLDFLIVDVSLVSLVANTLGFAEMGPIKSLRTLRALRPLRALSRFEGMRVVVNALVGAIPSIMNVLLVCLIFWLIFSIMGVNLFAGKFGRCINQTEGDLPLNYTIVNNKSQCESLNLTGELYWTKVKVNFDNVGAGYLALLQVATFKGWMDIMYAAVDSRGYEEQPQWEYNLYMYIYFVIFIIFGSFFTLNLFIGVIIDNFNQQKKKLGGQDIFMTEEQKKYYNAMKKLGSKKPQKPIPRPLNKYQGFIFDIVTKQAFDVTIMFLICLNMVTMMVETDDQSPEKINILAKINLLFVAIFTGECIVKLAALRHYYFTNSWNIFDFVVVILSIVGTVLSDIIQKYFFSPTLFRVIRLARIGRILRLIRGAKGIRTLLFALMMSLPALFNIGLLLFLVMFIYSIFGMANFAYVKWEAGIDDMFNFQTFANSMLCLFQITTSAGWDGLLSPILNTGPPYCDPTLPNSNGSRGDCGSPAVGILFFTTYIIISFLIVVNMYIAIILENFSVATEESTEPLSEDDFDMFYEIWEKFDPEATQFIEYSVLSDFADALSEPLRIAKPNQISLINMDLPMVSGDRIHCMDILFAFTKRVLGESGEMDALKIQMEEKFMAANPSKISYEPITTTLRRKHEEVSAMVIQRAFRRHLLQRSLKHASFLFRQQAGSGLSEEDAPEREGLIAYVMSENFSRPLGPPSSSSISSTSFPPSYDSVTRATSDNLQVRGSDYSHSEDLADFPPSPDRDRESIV
# testName: Sodium Influx Assay (Flux), NaV1.5
# experimentalConditions: read-out: Flux NaV1.5 IC50; Trex HEK293 cells, ANG2 dye; arithmetic mean
Where a name gives a salt, the structure may show the parent alone.
measuredProperty: IC50 (µM)
Give the value in µM but do not write µM after it.

So for C[C@]1(Nc2ccc(S(=O)(=O)Nc3cscn3)cc2Cl)CCN(Cc2ccccc2)C1 [Example 226, formate] , the logged IC50 turned out to be 9.04

So for CN(c1cc(F)c(S(=O)(=O)Nc2cscn2)cc1Cl)[C@H]1CCN(CCOCc2ccccc2)C1 [Example 200] , the logged IC50 turned out to be 7.21

So for O=S(=O)(Nc1nccs1)c1cc(Cl)c(N[C@@H]2CCN(Cc3ccccc3)C2)cc1F [Example 89] , the logged IC50 turned out to be 12

So for Cc1cc(S(=O)(=O)Nc2cscn2)c(F)cc1N(C)[C@H]1CCN(Cc2ccccc2C(F)F)C1 [Example 112] , the logged IC50 turned out to be 8.19

The measurements presented in this section are drawn from patent US10246453B2.
